system: SRC; settings: concentration: 1 μM, replicates: in singlicate; n = 1;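 also: KINOMEscan kinase panel screen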
Exercise: for every item that follows, state its recorded %Inh.
Answers are plain numbers, in %.

molecule=Cc1ccccc1-n1cnc2c(N)ncnc21 observable=%Inh result_number=13

Provide reported %Inh for each item, in the same order as listed.
1. Cc1cc(NCC(c2ccccc2)c2ccccc2)nc(NCc2ccc(C(F)(F)F)cc2)n1
2. Cl.NC(=O)c1cccc(Nc2nccc(Nc3ccc(Oc4cccc(Cl)c4)c(Cl)c3)n2)c1

[0, 25]

Provide reported %Inh for each item, in the same order as listed.
1. COc1cc2ncn(-c3cc(OCC4CCCO4)c(C(N)=O)s3)c2cc1OC (centres unmarked)
2. COc1ccc(CNC(=O)NC2CCN(c3ccnc(Nc4cc(OC)c(OC)c(OC)c4)n3)C2)cc1 (centres unmarked)

0
14
